Tested on: Escherichia coli TOP10
Assay: shrunken log2 fold change of peptide-encoding DNA abundance (4.5 h post-induction vs induction); higher = less antimicrobial activity (less host growth inhibition)
Settings: time post-induction: 4.5 h; library: site-saturation at positions 5, 18, 19, 20
Note to self: class labels come from recorded shrunken log2 fold change, ranges listed here: Low: < -0.03; Mid: ≥ -0.03 and < 0.2; High: ≥ 0.2

RRIRSRPPRLPRPRPRPLIMPRP Low

Given RRIRARPPRLPRPRPRPTPIPRP , name the class its shrunken log2 fold change places it in.
High

Tag the class for RRIRWRPPRLPRPRPRPEQFPRP
High

Bin? RRIRSRPPRLPRPRPRPEITPRP
Low

Field: class (shrunken log2 fold change) — entry: RRIRFRPPRLPRPRPRPLCWPRP
Mid

In plain terms, what class is RRIRPRPPRLPRPRPRPAVMPRP ?
High

---

System: Escherichia coli TOP10
Assay: shrunken log2 fold change of peptide-encoding DNA abundance (4.5 h post-induction vs induction); higher = less antimicrobial activity (less host growth inhibition)
Conditions: time post-induction: 4.5 h; library: site-saturation at positions 5, 18, 19, 20
Threshold check on shrunken log2 fold change: at or above -0.2 gives fulfilled, strictly below gives not fulfilled.

RRIRVRPPRLPRPRPRPLKWPRP not fulfilled
RRIRQRPPRLPRPRPRPRYKPRP not fulfilled

Identify whether the reported shrunken log2 fold change of the following sequence is -0.2 or greater: RRIRRRPPRLPRPRPRPGIKPRP
not fulfilled

Item RRIRSRPPRLPRPRPRPILRPRP with shrunken log2 fold change of -0.2 or above?
fulfilled

---

Tested on: Escherichia coli TOP10
Assay: shrunken log2 fold change of peptide-encoding DNA abundance (4.5 h post-induction vs induction); higher = less antimicrobial activity (less host growth inhibition)
Settings: time post-induction: 4.5 h; library: site-saturation at positions 5, 18, 19, 20
Examples of sequences with documented shrunken log2 fold change follow.
Write the number on its own, no unit after it.

Study these solved cases before continuing.
RRIRIRPPRLPRPRPRPKSCPRP -0.0687
RRIRHRPPRLPRPRPRPRDNPRP 0.0766
RRIRVRPPRLPRPRPRPTVLPRP -0.0891
RRIRARPPRLPRPRPRPAASPRP 0.928
RRIRNRPPRLPRPRPRPECAPRP 0.00267

Any idea what shrunken log2 fold change was measured for RRIRCRPPRLPRPRPRPLKWPRP ?
-0.0792

# get_value(readout='shrunken log2 fold change', item= RRIRERPPRLPRPRPRPKELPRP )
0.00511

What measured shrunken log2 fold change goes with RRIRSRPPRLPRPRPRPPEPPRP ?
0.373

Recorded shrunken log2 fold change for RRIRLRPPRLPRPRPRPCKRPRP , please?
-0.0962

---

Tested on: Escherichia coli TOP10;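 further: peptides expressed intracellularly from a pBAD plasmid library in pooled LB shake-flask culture, induced with 0.3% L-arabinose, DNA abundance read by NGS, three biological replicates, DESeq2 with apeglm shrinkage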
Test: shrunken log2 fold change of peptide-encoding DNA abundance (4.5 h post-induction vs induction); higher = less antimicrobial activity (less host growth inhibition)
Conditions: time post-induction: 4.5 h; library: site-saturation at positions 5, 18, 19, 20
Recorded shrunken log2 fold change determines the label; the label ranges are L (below -0.07), M (-0.07 to below 0.09), H (0.09 or more)

Use these answered entries as a reference point.
RRIRWRPPRLPRPRPRPNMCPRP M
RRIRQRPPRLPRPRPRPHQIPRP M
RRIRTRPPRLPRPRPRPEMWPRP M
RRIRCRPPRLPRPRPRPGRGPRP H
RRIRCRPPRLPRPRPRPVGRPRP H

Please report the category associated with RRIRQRPPRLPRPRPRPKKLPRP , nothing else.
L

Which class is correct for the following sequence? RRIRGRPPRLPRPRPRPRDRPRP
H

Each sequence maps to one class by shrunken log2 fold change. Which class for RRIRERPPRLPRPRPRPDTSPRP ?
L

Could you tell me which band RRIRCRPPRLPRPRPRPFHHPRP belongs to?
M

Please report the category associated with RRIRYRPPRLPRPRPRPVHYPRP , nothing else.
M

Hey, which category is RRIRIRPPRLPRPRPRPENTPRP in, do you know?
L
